- Tested on: Rhizoctonia solani
- test-name: Mycelia Inhibition
- Type: cell-based
- assay-conditions: 25° C., 24 hours
assay-readout: Mycelia Inhibition, for 99% control (R) (micrograms/cm^2)
Give the quantity in micrograms/cm^2, number only.

smiles-string: N#Cc1ccc(N=c2ssnc2Cl)cc1
assay-readout: Mycelia Inhibition, for 99% control (R)
test-value: 0.6
--
smiles-string: Cc1ccc(N=c2ssnc2Cl)cc1
assay-readout: Mycelia Inhibition, for 99% control (R)
test-value: 0.92
--
smiles-string: Cc1cc(Cl)ccc1N=c1ssnc1Cl
assay-readout: Mycelia Inhibition, for 99% control (R)
test-value: 0.63

Per the record, "Clc1cc(Cl)cc(N=c2ssnc2Cl)c1" has Mycelia Inhibition, for 99% control (R) of 0.98

Record "Oc1c(Cl)cc(N=c2ssnc2Cl)cc1Cl" , field Mycelia Inhibition, for 99% control (R): 1.3

Entry "O=[N+]([O-])c1ccc(Oc2ccc(N=c3ssnc3Cl)cc2)cc1" ; Mycelia Inhibition, for 99% control (R) = 0.88

For reference, reported Mycelia Inhibition, for 99% control (R) for "O=[N+]([O-])c1ccc(Oc2cccc(N=c3ssnc3Cl)c2)cc1" stands at 0.45

The recorded Mycelia Inhibition, for 99% control (R) for "Fc1ccccc1N=c1ssnc1Cl" is 0.73

In plain terms, "Clc1nssc1=Nc1cccc(Br)c1" has a documented Mycelia Inhibition, for 99% control (R) of 1.4

---

Reported Mite Control, % is given for each of the following compounds.
- System: two spotted-mites (Tetramuchus urticae)
- test-name: Mite control test, adult mites
- Format: in vivo
- assay-conditions: 40-ppm leaf dip, adult mortality one day after treatment; 1440 min
A complete answer gives the number followed by the unit.

Worked examples follow.
smiles-string: Cc1ccc(Cl)cc1N=c1ssnc1Cl
target-under-test: two spotted-mites (Tetramuchus urticae)
Mite Control, %: 85%
//
smiles-string: Cc1ccc(N=c2ssnc2Cl)c(C)c1
target-under-test: two spotted-mites (Tetramuchus urticae)
Mite Control, %: 0%
//
smiles-string: Clc1cc(Cl)cc(N=c2ssnc2Cl)c1
target-under-test: two spotted-mites (Tetramuchus urticae)
Mite Control, %: 90%
//
smiles-string: Cc1c(Cl)cccc1N=c1ssnc1Cl
target-under-test: two spotted-mites (Tetramuchus urticae)
Mite Control, %: 90%
//
smiles-string: Fc1ccccc1N=c1ssnc1Cl
target-under-test: two spotted-mites (Tetramuchus urticae)
Mite Control, %: 0%
//
smiles-string: Clc1ccc(N=c2ssnc2Cl)cc1Cl
target-under-test: two spotted-mites (Tetramuchus urticae)
Mite Control, %: 99%

compound "Clc1ccc(N=c2ssnc2Cl)c(Cl)c1" , Mite Control, % observed: 100%

Quick note, Mite Control, % for "O=[N+]([O-])c1ccc(Oc2ccc(N=c3ssnc3Cl)cc2)cc1" landed at 0%

Value of measured Mite Control, % for the entry "Cc1cc(Cl)ccc1N=c1ssnc1Cl" : 94%

Mite Control, % reading for "Clc1ccccc1N=c1ssnc1Cl" : 70%

---

Measured pest or weed control at 33 µg/cm2 accompanies every entry in the list below.
- System: Crabgrass (Digitaria sanguinalis)
- test-name: Post-emergent herbicidal test
- Assay type: in vivo
- assay-conditions: post-emergence, 504 h, 33 mcg/cm^2, 3 weeks, scale 0 (no phytotoxicity) to 100 (complete kill), read-out: Herbicidal Effectiveness (C)
Numeric only. Scale: %

smiles-string: O=[N+]([O-])c1cccc(N=c2ssnc2Cl)c1
pest or weed control at 33 µg/cm2 [%]: 0
--
smiles-string: Clc1ccc(N=c2ssnc2Cl)cc1Cl
pest or weed control at 33 µg/cm2 [%]: 30
--
smiles-string: Cc1cccc(C)c1N=c1ssnc1Cl
pest or weed control at 33 µg/cm2 [%]: 0
--
smiles-string: Cc1ccc(Cl)cc1N=c1ssnc1Cl
pest or weed control at 33 µg/cm2 [%]: 20

Observed pest or weed control at 33 µg/cm2, Crabgrass (Digitaria sanguinalis), "Cc1ccc(N=c2ssnc2Cl)cc1" : 35

Measured pest or weed control at 33 µg/cm2 for this entry "Cc1ccc(N=c2ssnc2Cl)c(C)c1" on Crabgrass (Digitaria sanguinalis): 0

The reported pest or weed control at 33 µg/cm2 value, Crabgrass (Digitaria sanguinalis), for "Cc1ccccc1N=c1ssnc1Cl" reads 0

Hey, Crabgrass (Digitaria sanguinalis) data for "Clc1ccccc1N=c1ssnc1Cl" : pest or weed control at 33 µg/cm2 came out at 30

---

Collected Mycelia Inhibition, for 99% control (R) values appear next to each entry.
- Test system: Rhizoctonia solani
- test-name: Mycelia Inhibition
- Type: cell-based
- assay-conditions: 25° C., 24 hours
Just the number please, in micrograms/cm^2, no unit attached.

// Mycelia Inhibition, for 99% control (R) value for O=[N+]([O-])c1ccc(Oc2ccccc2N=c2ssnc2Cl)cc1 [Compound 20] : 1.3

// sample Clc1cccc(N=c2ssnc2Cl)c1 [Compound 15] , its Mycelia Inhibition, for 99% control (R) was 0.98

For record Cc1c(Cl)cccc1N=c1ssnc1Cl [Compound 21] the listed Mycelia Inhibition, for 99% control (R) is 1.1

So for Clc1ccc(N=c2ssnc2Cl)cc1 [Compound 2] , the logged Mycelia Inhibition, for 99% control (R) turned out to be 0.33

Form field Mycelia Inhibition, for 99% control (R), entry Cc1cc(C)c(N=c2ssnc2Cl)c(C)c1 [Compound 11] : 0.98
